run-description: ATG_EGR_CIS: Attagene CIS-FACTORIAL HepG2 Assay for human Early Growth Response 1 (EGR1) (AID 2282938)
condition-details: HepG2 Attagene CIS-FACTORIAL EGR reporter mRNA; actives raise or lower the signal
Activity calls are given as the source filed them. The calls were made as follows: active = hit-call score of the fitted dose curve at least 0.9, where 1 is the maximum; inactive = score below 0.9.
outcome-measure: AC50

For orientation, consider the following solved cases.
>>> result_value("CCO[Si](CCCS)(OCC)OCC")
"inactive"
>>> result_value("O=C(Oc1ccccc1)c1ccc(O)cc1")
"inactive"
>>> result_value("S=C(S)NCCNC(=S)S")
"inactive"
>>> result_value("Cc1ccc(S)cc1")
"inactive"
>>> result_value("c1cc(C(c2ccc(OCC3CO3)cc2)c2ccc(OCC3CO3)cc2)ccc1OCC1CO1 (stereo not given)")
"8.73 µM (active)"
>>> result_value("CC(O)C(C)O (stereo not given)")
"inactive"
>>> result_value("CC1CCC2CC1C2(C)C (stereo not given)")
"inactive"
>>> result_value("Fc1c(F)c(F)c(Br)c(F)c1F")
"inactive"

Moving on to the next molecule.
What does the record list as AC50 for `CNCCCC12CCC(c3ccccc31)c1ccccc12` ? 15.7 µM (active)

###

run-description: ATG_EGR_CIS: Attagene CIS-FACTORIAL HepG2 Assay for human Early Growth Response 1 (EGR1) (AID 2282938)
condition-details: HepG2 Attagene CIS-FACTORIAL EGR reporter mRNA; actives raise or lower the signal
Activity calls are given as the source filed them. The calls were made as follows: active = hit-call score of the fitted dose curve at least 0.9, where 1 is the maximum; inactive = score below 0.9.
The reply should be one of these categories: Y for active, N for inactive

Reference set (3 entries):
>>> qualitative_label("CC(=O)OCc1ccc2c(c1)OCO2")
"N"
>>> qualitative_label("OCCOc1cccc(OCCO)c1")
"N"
>>> qualitative_label("CCCCCCCCCCCCCCCCCC(=O)OCC(CC)CCCC (stereo unspecified)")
"N"

Entry COC(C(=O)O)c1ccccc1 (stereo unspecified) : call = ? N

Lookup `CCCCCCCCCCCCN(CCCCCCCCCCCC)CCCCCCCCCCCC` N

// same read-out, input: `NC(N)=NC(=O)c1nc(Cl)c(N)nc1N` N

Consider next the molecule `CCCCCCCCCCCCN` in the same way. N

Also need `O=C(COc1ccc(Cl)cc1)N1CCN(Cc2ccc3c(c2)OCO3)CC1` , thanks. Y

###

run-description: ATG_EGR_CIS: Attagene CIS-FACTORIAL HepG2 Assay for human Early Growth Response 1 (EGR1) (AID 2282938)
condition-details: HepG2 Attagene CIS-FACTORIAL EGR reporter mRNA; actives raise or lower the signal
Active and inactive are the calls of the source. How the source made its calls: active means hit-call score of the fitted dose curve at least 0.9, where 1 is the maximum; inactive means score below 0.9.
outcome-measure: outcome

>>> result_value("O=C(O)c1ccc(C(=O)O)cc1")
"inactive"
>>> result_value("CC(=O)C=CC1=C(C)CCCC1(C)C")
"inactive"
>>> result_value("O=c1[nH]nnc2ccccc12")
"inactive"
